Measured target: MAPK1 (Homo sapiens)
Sequence (P28482 whole entry): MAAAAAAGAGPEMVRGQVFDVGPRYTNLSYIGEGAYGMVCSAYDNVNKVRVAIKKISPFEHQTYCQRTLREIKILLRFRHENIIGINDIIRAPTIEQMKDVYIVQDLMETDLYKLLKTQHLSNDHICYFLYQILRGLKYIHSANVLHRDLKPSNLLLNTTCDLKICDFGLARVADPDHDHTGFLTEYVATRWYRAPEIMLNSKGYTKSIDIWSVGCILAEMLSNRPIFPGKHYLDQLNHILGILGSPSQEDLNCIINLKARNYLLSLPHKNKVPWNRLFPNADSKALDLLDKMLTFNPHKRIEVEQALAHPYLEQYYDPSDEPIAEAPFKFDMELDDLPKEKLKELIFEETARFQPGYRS
Recorded endpoint: IC50

// below: answered compounds
{"Compound": "Cl.NCC1(c2nc(-c3ccc(Cl)c(O)c3)c(-c3ccncc3)[nH]2)CCCCC1 [TCMDC-141154]", "Result": "> 20 µM"}
{"Compound": "CN1CCN(c2ccc(Nc3ncc(C#N)c(Nc4ccccc4C(N)=O)n3)cc2)CC1.Cl [TCMDC-134116]", "Result": "> 20 µM"}

Consider now this further compound.
q: Provide the reported IC50 (system: MAPK1 (Homo sapiens)) for CN(C)CC(O)COc1ccc(Nc2ncc([N+](=O)[O-])c(Nc3ccccc3O)n2)cc1.O=C(O)C(F)(F)F (stereo not drawn) [TCMDC-141399]
a: > 20 µM

----------
Measured target: CSNK1A1 (Homo sapiens)
Sequence (P48729 whole entry): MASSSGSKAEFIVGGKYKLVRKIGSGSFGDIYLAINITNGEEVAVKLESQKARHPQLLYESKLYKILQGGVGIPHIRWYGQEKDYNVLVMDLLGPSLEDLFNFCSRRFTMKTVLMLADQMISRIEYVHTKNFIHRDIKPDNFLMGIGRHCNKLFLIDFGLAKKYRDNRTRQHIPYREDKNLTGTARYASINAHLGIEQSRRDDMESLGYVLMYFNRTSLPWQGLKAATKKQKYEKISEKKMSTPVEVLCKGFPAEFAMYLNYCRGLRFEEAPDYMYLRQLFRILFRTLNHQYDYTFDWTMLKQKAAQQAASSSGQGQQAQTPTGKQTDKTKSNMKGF
Recorded endpoint: IC50 (µM)
Quick note: give the figure in µM, leave out the unit.

q: Provide the reported IC50 (system: CSNK1A1 (Homo sapiens)) for CN(C)CC(O)COc1ccc(Nc2ncc([N+](=O)[O-])c(Nc3ccccc3O)n2)cc1.O=C(O)C(F)(F)F (stereo not shown)
a: 9.9

----------
Measured target: Plasmodium falciparum protein kinase 6 (PK6) (Plasmodium falciparum, UniProt Q8IDW1)
Construct: 6-Histidine (N); made in house
Sequence (Q8IDW1 1-305): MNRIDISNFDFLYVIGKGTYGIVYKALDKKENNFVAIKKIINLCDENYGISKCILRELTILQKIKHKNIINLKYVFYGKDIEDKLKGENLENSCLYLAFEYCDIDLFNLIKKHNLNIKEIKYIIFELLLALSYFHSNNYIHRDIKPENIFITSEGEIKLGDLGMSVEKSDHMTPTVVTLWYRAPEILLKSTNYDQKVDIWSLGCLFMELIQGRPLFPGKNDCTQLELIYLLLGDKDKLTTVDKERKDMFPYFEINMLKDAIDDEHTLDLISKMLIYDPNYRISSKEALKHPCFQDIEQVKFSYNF
Test description: biochemical
Run parameters: hits below 1 uM; read-out: PK6 IC50
Recorded endpoint: IC50 (nM)
Quick note: give the figure in nM, leave out the unit.

// below: answered molecules
{"Molecule": "CS(=O)(=O)Cc1cccc(Nc2ncc(Cl)c(Nc3cccnc3C(N)=O)n2)c1.Cl [TCMDC-134166]", "Readout unit": "nM", "IC50": 74}
{"Molecule": "Cn1cc(-c2ccnc3[nH]c(-c4cccc(CNC5CCC(O)CC5)c4)cc23)cn1.O=C(O)C(F)(F)F (stereo not drawn) [TCMDC-133805]", "Readout unit": "nM", "IC50": 177}

Consider now this further molecule.
q: // fetch IC50 given entry Cc1cc(Nc2ncc(C#N)c(Nc3ccccc3C(N)=O)n2)ccc1N1CCN(C)CC1.Cl [TCMDC-134115]
a: 54

----------
Measured target: Plasmodium falciparum calcium-dependent protein kinase 1 (CDPK1) (Plasmodium falciparum)
Construct: 6-Histidine (N); made in house
Sequence (P62344 whole entry): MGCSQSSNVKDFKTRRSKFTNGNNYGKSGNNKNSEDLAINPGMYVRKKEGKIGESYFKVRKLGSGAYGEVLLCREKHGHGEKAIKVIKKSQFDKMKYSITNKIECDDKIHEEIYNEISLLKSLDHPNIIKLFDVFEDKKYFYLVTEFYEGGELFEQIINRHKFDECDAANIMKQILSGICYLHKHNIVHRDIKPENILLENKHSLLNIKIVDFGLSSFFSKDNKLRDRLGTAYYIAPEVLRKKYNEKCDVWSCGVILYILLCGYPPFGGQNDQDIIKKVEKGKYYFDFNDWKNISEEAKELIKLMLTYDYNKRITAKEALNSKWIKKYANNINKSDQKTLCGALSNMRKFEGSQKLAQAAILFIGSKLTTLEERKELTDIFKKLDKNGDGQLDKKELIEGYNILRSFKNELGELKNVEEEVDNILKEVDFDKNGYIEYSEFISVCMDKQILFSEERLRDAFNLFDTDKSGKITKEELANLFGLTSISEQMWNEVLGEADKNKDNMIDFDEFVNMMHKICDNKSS
Test description: CDPK1 Kinase-Glo ATP-consumption screen and dose-response
Assay type: biochemical
Run parameters: hits below 1 uM; read-out: CDPK1 IC50
# class assignment by measured IC50: LOW = under 90 nM, MID = from 90 nM up to 200 nM, HIGH = 200 nM and over

Here are 5 compounds together with their reported answers.
{"Structure smiles string": "CC(C)(CNC(=O)[C@H]1CCCN1)c1nc(-c2ccc(Cl)c(O)c2)c(-c2ccncc2)[nH]1.Cl", "Category": "MID"}
{"Structure smiles string": "CCn1c(-c2nonc2N)nc2c(-c3ccccc3)ncc(OCCCCNCCc3ncc[nH]3)c21.O=C(O)C(F)(F)F", "Category": "MID"}
{"Structure smiles string": "CC(C)(CNC(=O)C1CCN(Cc2ccc(Cl)cc2)CC1)c1nc(-c2ccc(Cl)c(O)c2)c(-c2ccncc2)[nH]1.Cl", "Category": "HIGH"}
{"Structure smiles string": "CCN(CC)CCCOc1ccc(Nc2nccc(-c3c(-c4cccc(NC(=O)c5c(F)cccc5F)c4)nn4ccccc34)n2)cc1F", "Category": "HIGH"}
{"Structure smiles string": "CC(C)(CNCc1ccc(Cl)c(Cl)c1)c1nc(-c2ccc(Cl)c(O)c2)c(-c2ccncc2)[nH]1.Cl", "Category": "HIGH"}

Pending compound:
q: Would you mind sorting `Cc1nnc(-c2cccc(Nc3ccnc4cc(-c5nccs5)ccc34)c2)o1.Cl` into the appropriate category?
a: MID
